molecular target: EPH-B2 (Homo sapiens, UniProt P29323); experiment: Kinase panel (mobility shift); type: biochemical; details: at 5 um
Sequence (P29323 19-1055, species assumed): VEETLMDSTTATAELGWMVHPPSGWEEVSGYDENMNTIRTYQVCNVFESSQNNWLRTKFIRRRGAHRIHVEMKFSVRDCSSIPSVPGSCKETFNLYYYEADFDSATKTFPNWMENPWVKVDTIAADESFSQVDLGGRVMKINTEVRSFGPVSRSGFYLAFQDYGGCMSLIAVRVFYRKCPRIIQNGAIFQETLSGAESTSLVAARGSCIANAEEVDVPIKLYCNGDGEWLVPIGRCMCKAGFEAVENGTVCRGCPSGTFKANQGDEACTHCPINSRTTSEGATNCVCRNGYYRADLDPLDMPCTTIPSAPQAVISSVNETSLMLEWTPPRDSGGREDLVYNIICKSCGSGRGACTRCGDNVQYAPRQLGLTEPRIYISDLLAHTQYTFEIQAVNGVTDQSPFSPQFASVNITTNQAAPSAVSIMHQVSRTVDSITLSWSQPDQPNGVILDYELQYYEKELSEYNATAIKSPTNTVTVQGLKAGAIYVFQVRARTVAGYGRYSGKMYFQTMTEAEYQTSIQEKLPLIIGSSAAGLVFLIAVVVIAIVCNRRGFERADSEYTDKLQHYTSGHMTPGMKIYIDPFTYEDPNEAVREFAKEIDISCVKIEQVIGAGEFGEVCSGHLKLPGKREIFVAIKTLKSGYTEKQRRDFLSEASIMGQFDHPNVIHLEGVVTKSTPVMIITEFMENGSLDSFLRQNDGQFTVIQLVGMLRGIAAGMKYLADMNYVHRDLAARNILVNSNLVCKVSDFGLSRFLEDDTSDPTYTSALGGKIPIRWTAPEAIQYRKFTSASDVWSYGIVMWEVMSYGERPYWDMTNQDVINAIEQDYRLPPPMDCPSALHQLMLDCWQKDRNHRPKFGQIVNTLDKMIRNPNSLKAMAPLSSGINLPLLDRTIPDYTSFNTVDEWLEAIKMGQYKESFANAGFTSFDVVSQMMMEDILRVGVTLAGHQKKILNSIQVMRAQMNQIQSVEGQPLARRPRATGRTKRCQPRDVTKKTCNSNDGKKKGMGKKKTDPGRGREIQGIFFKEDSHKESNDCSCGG
OBSERVATION_TYPE: inhibition of kinase activity, EPH-B2

CNC(=O)c1cc(Oc2ccc(NC(=O)c3nc(SC)oc3-c3ccc(F)s3)cc2F)ccn1 :: D (category D for 50-79)
CSc1nc(C(=O)Nc2ccc(Oc3ccnc(C(=O)NCCN(C)C)c3)c(F)c2)c(-c2ccc(F)cc2)o1 :: D (category D for 50-79)
CNC(=O)c1cc(Oc2c(F)cc(NC(=O)c3nc(NC)sc3-c3ccc(F)cc3)cc2F)ccn1 :: D (category D for 50-79)

The measurements presented in this section are drawn from patent US11629143B2.
